Give measured AUC(0-t) at 24 h for each item. Keep answers brief.
procedure.summary: AUC (0 to 24 hrs) in Wistar rat plasma at 2 mg/kg administered as single dose via oral gavage by HPLC-MS/MS analysis
Type: ADME, organism-based
Set-up: dose 2 mg/kg, time < 24 hr, route oral
Quote the value and follow it with the unit of measurement.

>>> df
                                     smiles  value_observed
0  COc1ccc(-n2nc3c4ccc(OC)cc4[nH]cc-3c2=O)cc1    1270 ng·h/mL

For the next question, use this molecule.
Enquiry: Please report the recorded AUC(0-t) at 24 h for [2H]C([2H])([2H])Oc1ccc(-n2nc3c4ccc(OC)cc4[nH]cc-3c2=O)cc1 .
Return: 3000 ng·h/mL

====

procedure.summary: Terminal elimination half-life in Wistar rat brain at 2 mg/kg, iv administered as single dose by HPLC-MS/MS analysis
Format: ADME, organism-based
recorded.conditions: read-out: beta t1/2 (converted)
Give measured half-life for each item. Keep answers brief.
One number for each entry, in h.

>>> print(df.to_string())
                                     smiles  value_observed
0  COc1ccc(-n2nc3c4ccc(OC)cc4[nH]cc-3c2=O)cc1            10.9

For the next question, use this compound.
Enquiry: Please report the recorded half-life for [2H]C([2H])([2H])Oc1ccc(-n2nc3c4ccc(OC)cc4[nH]cc-3c2=O)cc1 .
Return: 4.34

====

target.of.assay: GABA-A receptor; alpha-6/beta-3/gamma-2 (Homo sapiens) (UniProt P18507+P28472+Q16445)
procedure.summary: Positive allosteric modulation of GABA-A receptor alpha6beta3gamma2 (unknown origin) expressed in Xenopus laevis oocytes assessed as potentiation of EC3 GABA induced currents up to 10 uM at -60 mV holding potential by electrophysiological method
Assay type: cell-based
recorded.conditions: tested as the 2H-labelled form
Calls of active or inactive are those of the source. No cut-off for these calls is given here.
property: Activity

                                     smiles  property  value_observed
0  COc1ccccc1-n1nc2c3cc(Cl)ccc3[nH]cc-2c1=O  Activity        inactive
1  COc1ccc(-n2nc3c4ccc(Br)cc4[nH]cc-3c2=O)cn1  Activity          Active
2  COc1ccc(-n2nc3c4cc(Cl)ccc4[nH]cc-3c2=O)cn1  Activity        inactive
3  COc1ccc2c3nn(-c4ccc(OC)nc4)c(=O)c-3c[nH]c2c1  Activity          Active

====

procedure.summary: Cmax in Wistar rat plasma at 2 mg/kg administered as single dose via oral gavage measured at 5 to 1440 mins post dose by HPLC-MS/MS analysis
Type: ADME, organism-based
Set-up: dose 2 mg/kg, route oral
Give measured Cmax for each item. Keep answers brief.
Answers are plain numbers, in ng/mL.

>>> df
                                     smiles  value_observed
0  [2H]C([2H])([2H])Oc1ccc(-n2nc3c4ccc(OC)cc4[nH]cc-3c2=O)cc1             222

Enquiry: Please report the recorded Cmax for COc1ccc(-n2nc3c4ccc(OC)cc4[nH]cc-3c2=O)cc1 .
Return: 173

====

procedure.summary: Metabolic stability in human liver microsomes assessed as parent compound remaining at 10 uM after 60 mins by LC-MS analysis
Type: ADME, microsome
recorded.conditions: read-out: Stability
property: remaining at 1 h, 10 µM (%)
Numbers only, in %.

                                     smiles  display_unit  value_observed
0  [2H]C([2H])([2H])Oc1ccc(-n2nc3c4ccc(OC)cc4[nH]cc-3c2=O)cn1             %            92.6

// each compound listed below needs its remaining at 1 h, 10 µM
1. [2H]C([2H])([2H])Oc1ccc2c3nn(-c4ccc(OC([2H])([2H])[2H])nc4)c(=O)c-3c[nH]c2c1
2. [2H]C([2H])([2H])Oc1ccccc1-n1nc2c3ccc(Br)cc3[nH]cc-2c1=O
3. [2H]C([2H])([2H])Oc1cccc(-n2nc3c4cc(Cl)ccc4[nH]cc-3c2=O)c1
4. [2H]C([2H])([2H])Oc1ccccc1-n1nc2c3cc(Cl)ccc3[nH]cc-2c1=O
5. [2H]C([2H])([2H])Oc1ccc(-n2nc3c4ccc(Br)cc4[nH]cc-3c2=O)cn1

Return:
90
92.8
93
94.8
97.8

// each compound listed below needs its remaining at 1 h, 10 µM
1. [2H]C([2H])([2H])Oc1ccc(-n2nc3c4ccc(Br)cc4[nH]cc-3c2=O)cc1
2. COc1ccc(-n2nc3c4cnc(OC)cc4[nH]cc-3c2=O)cc1
3. [2H]C([2H])([2H])Oc1cccc(-n2nc3c4ccc(OC([2H])([2H])[2H])cc4[nH]cc-3c2=O)c1

Return:
1: 81.5; 2: 91; 3: 89.5

// each compound listed below needs its remaining at 1 h, 10 µM
1. COc1ccc(-n2nc3c4cc(Cl)ccc4[nH]cc-3c2=O)cc1
2. [2H]C([2H])([2H])Oc1ccc(-n2nc3c4cc(Cl)ccc4[nH]cc-3c2=O)cn1
3. COc1cccc(-n2nc3c4cc(Cl)ccc4[nH]cc-3c2=O)c1
4. [2H]C([2H])([2H])Oc1ccc(-n2nc3c4ccc(OC)cc4[nH]cc-3c2=O)cc1

Return:
[72.5, 93, 81.4, 91.7]

====

procedure.summary: Solubility of the compound in 0.01M HCl at pH 2 after 2 hrs by LC-MS analysis
Type: physicochemical
recorded.conditions: buffer, pH 2, 2 h
Parameter threshold = 7 µM. Response is True when solubility meets or exceeds it, else False.

Illustrative cases are given below, each with its answer.
                                     smiles  group_label
0  COc1cccc(-n2nc3c4cc(Cl)ccc4[nH]cc-3c2=O)c1        False
1  COc1ccc(-n2nc3c4cc(Cl)ccc4[nH]cc-3c2=O)cc1         True
2  COc1ccc(-n2nc3c4cnc(OC)cc4[nH]cc-3c2=O)cc1         True
3  COc1ccc(-n2nc3c4cc(Cl)ccc4[nH]cc-3c2=O)cn1        False
4  COc1ccc(-n2nc3c4ccc(Br)cc4[nH]cc-3c2=O)cc1        False

Enquiry: Entry COc1ccc(-n2nc3c4ccc(OC)cc4[nH]cc-3c2=O)cc1 : is its solubility no less than 7 µM?
Return: True

Enquiry: Entry COc1ccc2c3nn(-c4ccc(OC)nc4)c(=O)c-3c[nH]c2c1 : is its solubility no less than 7 µM?
Return: True

====

Test system: Liver
procedure.summary: Half life in mouse liver microsomes at 10 uM by LC-MS/MS analysis
Format: ADME, microsome
Give measured t1/2 for each item. Keep answers brief.
One number for each entry, in h.

Some solved cases for reference:
In [3]: df
Out[3]:
                                     smiles  property  value_observed
0  COc1ccc(-n2nc3c4ccc(OC)cc4[nH]cc-3c2=O)cc1      t1/2             3.2
1  [2H]C([2H])([2H])Oc1cccc(-n2nc3c4ccc(OC)cc4[nH]cc-3c2=O)c1      t1/2            14.5

// each molecule listed below needs its t1/2
1. [2H]C([2H])([2H])Oc1ccccc1-n1nc2c3ccc(Br)cc3[nH]cc-2c1=O
2. [2H]C([2H])([2H])Oc1ccc2c3nn(-c4ccc(OC([2H])([2H])[2H])nc4)c(=O)c-3c[nH]c2c1
3. [2H]C([2H])([2H])Oc1cccc(-n2nc3c4ccc(Br)cc4[nH]cc-3c2=O)c1
4. [2H]C([2H])([2H])Oc1cccc(-n2nc3c4cc(Cl)ccc4[nH]cc-3c2=O)c1
5. [2H]C([2H])([2H])Oc1ccc2c3nn(-c4ccccc4OC([2H])([2H])[2H])c(=O)c-3c[nH]c2c1
6. [2H]C([2H])([2H])Oc1cccc(-n2nc3c4ccc(OC([2H])([2H])[2H])cc4[nH]cc-3c2=O)c1

Return:
1. 1.5
2. 14.5
3. 3.6
4. 2.8
5. 13.9
6. 9.9

Enquiry: Please report the recorded t1/2 for [2H]C([2H])([2H])Oc1ccc(-n2nc3c4ccc(Br)cc4[nH]cc-3c2=O)cc1 .
Return: 2.3

====

procedure.summary: AUC (0 to 24 hrs) in Wistar rat plasma at 2 mg/kg, iv administered as single dose by HPLC-MS/MS analysis
Type: ADME, organism-based
Design: dose 2 mg/kg, time < 24 hr, route intravenous
Give measured AUC(0-t) at 24 h for each item. Keep answers brief.
Quote the value and follow it with the unit of measurement.

>>> df
                                     smiles          property  value_observed
0  [2H]C([2H])([2H])Oc1ccc(-n2nc3c4ccc(OC)cc4[nH]cc-3c2=O)cc1  AUC(0-t) at 24 h    3000 ng·h/mL

Enquiry: Please report the recorded AUC(0-t) at 24 h for COc1ccc(-n2nc3c4ccc(OC)cc4[nH]cc-3c2=O)cc1 .
Return: 1890 ng·h/mL
